Where these numbers come from: patent US20130012436A1

TARGET OR TEST SYSTEM: T1, human serum albumin (human, UniProt P02768 25-609)
T1 construct: also called HSA
T1 sequence (P02768 25-609 limits assumed): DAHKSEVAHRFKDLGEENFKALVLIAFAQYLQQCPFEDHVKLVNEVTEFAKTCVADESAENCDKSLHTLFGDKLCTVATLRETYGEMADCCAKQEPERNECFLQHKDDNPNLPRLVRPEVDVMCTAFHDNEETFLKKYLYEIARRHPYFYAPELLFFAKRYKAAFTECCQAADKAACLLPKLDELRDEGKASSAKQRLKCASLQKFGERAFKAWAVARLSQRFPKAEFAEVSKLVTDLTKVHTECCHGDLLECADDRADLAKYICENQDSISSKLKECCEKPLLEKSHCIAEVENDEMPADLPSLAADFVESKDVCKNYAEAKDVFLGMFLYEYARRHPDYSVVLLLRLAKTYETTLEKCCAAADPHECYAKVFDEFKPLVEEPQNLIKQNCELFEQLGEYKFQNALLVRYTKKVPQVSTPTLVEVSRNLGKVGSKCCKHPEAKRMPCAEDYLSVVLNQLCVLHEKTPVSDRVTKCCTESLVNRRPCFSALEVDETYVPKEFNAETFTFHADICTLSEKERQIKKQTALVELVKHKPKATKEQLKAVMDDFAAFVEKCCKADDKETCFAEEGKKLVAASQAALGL
RUN DESCRIPTION: SPR (Biacore), albumin captured on CM5 chip, SABA flowed
Collected koff values appear next to each entry.
READOUT LABEL: koff (s⁻¹)

>>> quantitative_result("SABA2.1 (designed binder) MGVSDVPRDLEVVAATPTSLLISWPKYDKTGHYYRITYGETGGNSPVQEFTVPTRQTTATISGLKPGVDYTITVYAVSKDDYYPHEHRPISINYRTEIDKPSQHHHHHH")
0.000171
>>> quantitative_result("SABA3.1 (designed binder) MGVSDVPRDLEVVAATPTSLLISWSNDGPGLSYYRITYGETGGNSPVQEFTVPSSQTTATISGLKPGVDYTITVYAVSYYTKKAYSAGPISINYRTEIDKPSQHHHHHH")
0.0682
>>> quantitative_result("SABA1.1 (designed binder) MGVSDVPRDLEVVAATPTSLLISWHSYYEQNSYYRITYGETGGNSPVQEFTVPYSQTTATISGLKPGVDYTITVYAVYGSKYYYPISINYRTEIDKPSQHHHHHH")
0.000457
>>> quantitative_result("SABA4.1 (designed binder) MGVSDVPRDLEMVAATPTSLLISWEDDSYYSRYYRITYGETGGNSPVQEFTVPSDLYTATISGLKPGVDYTITVYAVTYDVTDLIMHEPISINYRTEIDKPSQHHHHHH")
0.000782
